target: recombinant full-length human prolyl endopeptidase (PREP) (Homo sapiens, UniProt P48147); construct: To recombinant full-length human prolyl endopeptidase (PREP, R&D-Systems, 4308-SE); test: Biochemical human prolyl endopeptidase (PREP) assay with fluorescently labelled substrate; details: substrate Z-Gly-Pro-AMC 50 μM, 32° C., 60 min; some as mean values from multiple independent determinations
Sequence (P48147 whole entry): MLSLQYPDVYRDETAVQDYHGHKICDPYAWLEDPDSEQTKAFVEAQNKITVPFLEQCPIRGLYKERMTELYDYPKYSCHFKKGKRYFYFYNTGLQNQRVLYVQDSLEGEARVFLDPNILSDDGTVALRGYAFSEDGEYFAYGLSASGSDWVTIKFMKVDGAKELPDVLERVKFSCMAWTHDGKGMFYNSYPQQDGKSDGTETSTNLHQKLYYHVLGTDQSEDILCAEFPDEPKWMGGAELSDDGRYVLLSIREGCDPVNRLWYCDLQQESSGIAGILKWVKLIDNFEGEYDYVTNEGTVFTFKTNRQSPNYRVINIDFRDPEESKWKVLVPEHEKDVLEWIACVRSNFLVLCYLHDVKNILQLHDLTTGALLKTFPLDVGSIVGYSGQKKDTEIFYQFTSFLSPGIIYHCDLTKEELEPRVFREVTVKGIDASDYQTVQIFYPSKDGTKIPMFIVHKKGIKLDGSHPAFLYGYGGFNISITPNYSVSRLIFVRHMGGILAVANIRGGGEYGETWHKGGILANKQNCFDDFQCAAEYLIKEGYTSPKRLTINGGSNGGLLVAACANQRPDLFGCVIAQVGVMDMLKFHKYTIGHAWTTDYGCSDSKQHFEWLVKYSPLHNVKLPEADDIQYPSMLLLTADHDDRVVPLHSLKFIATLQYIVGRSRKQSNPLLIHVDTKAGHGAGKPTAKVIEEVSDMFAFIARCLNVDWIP
Listing: IC50 of selected compounds
# output: bare number, implied unit nM

# count of solved cases: 3
• O=C([C@@H]1CCCc2nn(Cc3ncc(C(F)(F)F)cc3Cl)c(=O)n21)N1CCC(F)(F)C1 [Example 404] = 2.33
• O=C([C@@H]1CCCc2nn(Cc3ccc(C(F)(F)F)cn3)c(=O)n21)N1CCCC1 [Example 531] = 3
• Cc1ccc(Cn2nc3n(c2=O)C(C(=O)N2CC=CCC2)CCC3)cc1 (racemic) [Example 158] = 8.9

Query compound follows.
# input compound: O=C([C@@H]1CCC(F)(F)c2nn(Cc3ncc(C(F)(F)F)cc3Cl)c(=O)n21)N1CC[C@H](F)C1 [Example 589] ; wanted: its IC50
0.35

----------
target: recombinant full-length human prolyl endopeptidase (PREP) (Homo sapiens, UniProt P48147); construct: To recombinant full-length human prolyl endopeptidase (PREP, R&D-Systems, 4308-SE); assay: Biochemical human prolyl endopeptidase (PREP) assay with fluorescently labelled substrate; conditions: substrate Z-Gly-Pro-AMC 50 μM, 32° C., 60 min; some as mean values from multiple independent determinations
readout label: pIC50
pIC50 (log units): -log10 of the concentration in mol/L.

• CC1CCC(C(=O)N2CC[C@H](F)C2)n2c1nn(Cc1ccc(F)cc1F)c2=O (mixture of isomers) = 8.82
• O=C(C1CCc2nn(Cc3ccc(C(F)(F)F)nc3)c(=O)n21)N1CCC(F)(F)C1 (racemic) = 7.25
• O=C([C@@H]1CCCc2nn(Cc3ccc(Cl)c(F)c3)c(=O)n21)N1CCC(F)(F)C1 = 9.29
• O=C(C1CC(C(F)(F)F)Cc2nn(Cc3ncc(F)cc3F)c(=O)n21)N1CC[C@H](F)C1 (single isomer, unassigned) [Example 570] = 9.24
• O=C(C1CC(C(F)(F)F)Cc2nn(Cc3ccc(Cl)nc3)c(=O)n21)N1C[C@@H](F)[C@@H](F)C1 (single isomer, unassigned) [Example 249] = 9.08
• Cc1ccc(Cn2nc3n(c2=O)[C@H](C(=O)N2CCCC2)CC3)cc1 = 8.89
• CSc1ccc(Cn2nc3n(c2=O)C(C(=O)N2CCCC2)CCC3)cc1 (racemic) = 8.80
• O=C(C1CCCc2nn(Cc3ccc(Cl)cn3)c(=O)n21)N1CCCC1 (single isomer, unassigned) [Example 34] = 8.12

# input compound: O=C(C1C(C(F)(F)F)CCc2nn(Cc3ncc(Cl)cc3Cl)c(=O)n21)N1C[C@@H](F)[C@@H](F)C1 (single isomer, unassigned) [Example 288] ; wanted: its pIC50
7.80

Also O=C(C1CC(C(F)(F)F)Cc2nn(Cc3ncc(F)cc3F)c(=O)n21)N1CCC(F)(F)C1 (racemic) [Example 573] , if possible.
8.23

Also O=C(C1CC(C(F)(F)F)Cc2nn(Cc3ccc(Cl)nc3)c(=O)n21)N1CC(F)C1 (single isomer, unassigned) [Example 240] , if possible.
8.38

Also N#C[C@@H]1CCCN1C(=O)[C@@H]1CCCc2nn(Cc3ncc(Cl)cc3F)c(=O)n21 , if possible.
10.21

Also Cc1ccc(Cn2nc3n(c2=O)[C@H](C(=O)N2CC(C(F)F)C2)CCC3)cc1 , if possible.
8.60

Also O=C(C1C(C(F)(F)F)CCc2nn(Cc3ccnc(C(F)(F)F)c3F)c(=O)n21)N1CC(F)C1 (single isomer, unassigned) [Example 303] , if possible.
7.46
